target: Adenosine receptor A3 (Homo sapiens)
Sequence (P0DMS8 whole entry): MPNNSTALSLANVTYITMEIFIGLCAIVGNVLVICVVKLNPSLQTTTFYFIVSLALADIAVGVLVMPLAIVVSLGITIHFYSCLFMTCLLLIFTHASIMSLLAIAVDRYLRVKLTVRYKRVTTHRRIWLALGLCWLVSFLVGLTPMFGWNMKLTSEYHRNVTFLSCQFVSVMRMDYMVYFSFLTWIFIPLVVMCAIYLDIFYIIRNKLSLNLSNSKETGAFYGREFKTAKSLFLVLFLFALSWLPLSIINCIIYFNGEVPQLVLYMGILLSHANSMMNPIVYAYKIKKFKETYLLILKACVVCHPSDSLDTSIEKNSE

smilesEntry: CCCn1c(=O)c2nc(C3CCCC3)[nH]c2n(CC2=CC(C)(C)N([O])C2(C)C)c1=O
target: Adenosine receptor A3 (Homo sapiens)
Ki / nM: 1700
//
smilesEntry: CCCCn1c(=O)[nH]c2[nH]c(-c3ccc(OCC(=O)Nc4ccc(CC(=O)O)cc4)cc3)nc2c1=O
target: Adenosine receptor A3 (Homo sapiens)
Ki / nM: 676
//
smilesEntry: CCCn1c(=O)c2[nH]c(C3CCCC3)nc2n(Cc2ccccc2)c1=O
target: Adenosine receptor A3 (Homo sapiens)
Ki / nM: 54.6

###

target: Adenosine receptor A1 (Rattus norvegicus, UniProt P25099)
experimentalDetails: Inhibition of [3H]R-PIA binding to adenosine A1 receptor
pKi: −log10 of the molar value.
measureName: pKi

smilesEntry: CCCn1c(=O)c2[nH]c(C3CCCC3)nc2n(Cc2ccccc2)c1=O
measureName: pKi
measValue: 8.06

###

target: Adenosine receptor A1 (Rattus norvegicus)
Sequence (P25099 whole entry): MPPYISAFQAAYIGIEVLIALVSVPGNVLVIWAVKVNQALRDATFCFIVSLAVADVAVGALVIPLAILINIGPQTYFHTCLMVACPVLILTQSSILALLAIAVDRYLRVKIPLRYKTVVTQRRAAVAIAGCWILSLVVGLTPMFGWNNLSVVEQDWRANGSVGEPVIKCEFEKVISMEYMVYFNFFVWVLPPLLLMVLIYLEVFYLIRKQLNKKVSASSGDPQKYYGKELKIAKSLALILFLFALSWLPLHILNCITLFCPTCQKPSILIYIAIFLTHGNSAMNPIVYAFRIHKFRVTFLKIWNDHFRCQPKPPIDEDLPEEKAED
experimentalDetails: Inhibition of [3H]CCPA binding to adenosine A1 receptor
Entries and their Ki

smilesEntry: CCCCn1c(=O)[nH]c2[nH]c(-c3ccc(OCC(=O)Nc4ccc(CC(=O)O)cc4)cc3)nc2c1=O
Ki, nM: 41
--
smilesEntry: CCCn1c(=O)c2nc(C3CC(C)(C)N([O])C(C)(C)C3)[nH]c2n(CCC)c1=O
Ki, nM: 160
--
smilesEntry: CCCn1c(=O)c2nc(C3CCCC3)[nH]c2n(CC2=CC(C)(C)N([O])C2(C)C)c1=O
Ki, nM: 5.47
--
smilesEntry: CCCn1c(=O)c2nc(C3=CC(C)(C)N([O])C3(C)C)[nH]c2n(CCC)c1=O
Ki, nM: 8.23

###

target: Adenosine receptor A2a (Rattus norvegicus, UniProt P30543)
Sequence (P30543 whole entry): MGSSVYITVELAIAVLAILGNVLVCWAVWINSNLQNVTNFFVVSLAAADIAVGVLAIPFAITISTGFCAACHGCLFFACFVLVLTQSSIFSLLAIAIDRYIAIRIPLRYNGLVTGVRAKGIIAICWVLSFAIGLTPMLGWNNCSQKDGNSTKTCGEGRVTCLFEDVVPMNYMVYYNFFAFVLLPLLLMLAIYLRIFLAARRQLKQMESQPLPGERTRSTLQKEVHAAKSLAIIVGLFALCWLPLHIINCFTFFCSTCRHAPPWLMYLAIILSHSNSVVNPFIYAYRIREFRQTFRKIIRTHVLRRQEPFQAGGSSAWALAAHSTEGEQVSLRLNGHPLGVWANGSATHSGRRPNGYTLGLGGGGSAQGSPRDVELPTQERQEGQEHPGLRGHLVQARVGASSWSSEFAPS
experimentalDetails: Inhibition of [3H]NECA binding to adenosine A2a receptor
pKi: −log10 of the molar value.
measureName: pKi

smilesEntry: CCCn1c(=O)c2[nH]c(C3CCCC3)nc2n(Cc2ccccc2)c1=O
measureName: pKi
measValue: 6.29

###

target: Adenosine receptor A2b (Homo sapiens, UniProt P29275)
Sequence (P29275 whole entry): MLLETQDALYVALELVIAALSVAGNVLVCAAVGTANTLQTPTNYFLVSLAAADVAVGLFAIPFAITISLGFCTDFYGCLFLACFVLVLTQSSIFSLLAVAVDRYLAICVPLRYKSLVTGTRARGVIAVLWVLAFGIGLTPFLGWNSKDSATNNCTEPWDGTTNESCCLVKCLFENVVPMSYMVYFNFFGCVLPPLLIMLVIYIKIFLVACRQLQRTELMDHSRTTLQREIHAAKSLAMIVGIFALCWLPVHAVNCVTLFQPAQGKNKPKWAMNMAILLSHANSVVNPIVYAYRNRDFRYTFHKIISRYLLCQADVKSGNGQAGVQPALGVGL
experimentalDetails: Inhibition of [3H]PSB-298 binding to adenosine A2b receptor
pKi: −log10 of the molar value.

smilesEntry: CCCn1c(=O)c2nc(C3CCCC3)[nH]c2n(CC2=CC(C)(C)N([O])C2(C)C)c1=O
pKi: < 6.00
--
smilesEntry: CCCn1c(=O)c2nc(C3=CC(C)(C)N([O])C3(C)C)[nH]c2n(CCC)c1=O
pKi: 5.51
--
smilesEntry: CCCn1c(=O)c2nc(C3CC(C)(C)N([O])C(C)(C)C3)[nH]c2n(CCC)c1=O
pKi: < 5.00
